target: T1, rhesus monkey transferrin receptor (rhTfR) fused to EGFP, on CHO cells (rhesus monkey); experiment: apparent Kd, flow cytometry, CHO cells
T1 construct: whole, on cells; also called rhesus monkey TfR
Each record is given condition met if its reported Kd is strictly below 20 nM. Records at or above 20 nM are given condition not met.

Binder	Assigned Category
VHH A10 (C5^V10) (VHH) VHH: EVQLVESGGGVVQPGGSLKLSCVASGTDFSLNFIRWYRQAPGKQREFVAGFTATGNTNYADSMKGRFTISRDNTKNAVYLQIDSLKPEDTAVYYCYMLDKWGQGTQVTVSS	condition met
C5^V27 (VHH) VHH: EVQLVESGGGVVQPGGSLKLSCVASGADFSINYIRWYRQAPGKQREFVAGFTATGNTNYADSMKGRFTISRDNTKNAVYLQIDSLKPEDTAVYYCYMLDKWGQGTQVTVSS	condition not met
B8^V3 (VHH) VHH: EVQLVESGGGVVQPGGSLRLSCAASGEIFSINFMRWYREAPGKQREWVAGFTRDGSTNYPDSAKGRFTISRDNAKNTVYLQIDSLKPEDTAVYYCYMLDTWGQGTQVTVSS	condition met
B8^V21 (VHH) VHH: EVQLVESGGGVVQPGGSLRLSCAASGEIFSINNMRWYRQAPGKQREWVAGFTRDGSTNYPDSAKGRFTISRDNAKNTVYLQIDSLKPEDTAVYYCYMLDTWGQGTQVTVSS	condition not met
VHH A14 (C5^V14) (VHH) VHH: EVQLVESGGGVVQPGGSLKLSCVASGTDFSINFIRWYRQAPGKQREFVAGFTATGNSNYADSMKGRFTISRDNTKNAVYLQIDSLKPEDTAVYYCYMLDKWGQGTQVTVSS	condition met
VHH A9 (C5^V9) (VHH) VHH: EVQLVESGGGVVQPGGSLKLSCVASGTDFSINFIRWYRQAPGKQREFVAGFTATGNTNYADSMKGRFTISRDNTKNAVYLQIDSLKPEDTAVYYCYMLDAWGQGTQVTVSS	condition met
B8^V32 (VHH) VHH: EVQLVESGGGVVQPGGSLRLSCAASGEIRSINFMRWYRQAPGKQREWVAGFTRDGSTNYPDSAKGRFTISRDNAKNTVYLQIDSLKPEDTAVYYCYMLDTWGQGTQVTVSS	condition met
C5^h19 (VHH) VHH: EVQLVESGGGVVQPGGSLRLSCAASGTDFSINFIRWYRQAPGKQREFVAGFTATGNTNYADSVKGRFTISRDNAKNTLYLQMNSLRPEDTAVYYCYMLDKWGQGTQVTVSS	condition not met
